# reported Response; entries follow
# SYSTEM UNDER TEST: T1, Rhesus macaque CD4-HIS (Acro Biosystems, Cat. CD4-C52H7) (rhesus macaque, UniProt P16003 26-390)
# T1 construct: Bought reagent; also called Rhesus CD4; rhesus CD4-HIS; not shown: His tag
# T1 sequence (P16003 26-390 limits assumed): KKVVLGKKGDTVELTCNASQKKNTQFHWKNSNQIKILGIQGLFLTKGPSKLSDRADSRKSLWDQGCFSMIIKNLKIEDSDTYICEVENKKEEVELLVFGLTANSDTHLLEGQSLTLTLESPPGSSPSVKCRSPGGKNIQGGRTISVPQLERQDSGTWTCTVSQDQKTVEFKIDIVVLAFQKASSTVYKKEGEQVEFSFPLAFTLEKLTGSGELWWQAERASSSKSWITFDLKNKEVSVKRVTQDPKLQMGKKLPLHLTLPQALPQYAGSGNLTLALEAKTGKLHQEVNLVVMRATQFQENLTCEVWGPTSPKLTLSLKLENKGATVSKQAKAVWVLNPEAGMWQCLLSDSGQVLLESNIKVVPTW
# ASSAY EXPLANATION: BLI (Octet Red384); Ab on anti-mouse Fc (AMC) sensor; rhesus CD4-HIS 100/50/25 nM; global 1:1 fit;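 also: antibodies loaded at 10 µg/mL, an unrelated mouse-derived antibody served as internal reference, curves fit over association and dissociation phases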
Reply briefly: the number, and no unit.

* 75110_13C13A (antibody, V domains shown, Tested as antibody purified from AlivaMab Mouse hybridoma supernatant (human variable domains, kappa; mouse Fc, captured on anti-mouse IgG Fc sensors); also called ADS75110 purified AMM Ab) VH: QVQLQQWGAGLLKPSETLSLTCAVSGGSFSGYYWSWIRQPPGKGLEWIGEINHSGSTNCNPSLKSRVTISVDTSKNQFSLKLSSVTAADTAMYYCARVLNFFDYWGQGTLVTVSS VL: DIQMTQTPSSVSASVGDRVTITCRASPGISNWLAWYQQKPGKAPELLIYAASSLQSGVPSRFSGSGSGTDFTLTISSLQPEDFATYFCQQANSFPLTFGGGTKVESK | 0.09

Proceeding to the next binder to report its Response.
75110_14N19A (antibody, V domains shown, Tested as antibody purified from AlivaMab Mouse hybridoma supernatant (human variable domains, kappa; mouse Fc, captured on anti-mouse IgG Fc sensors); also called ADS75110 purified AMM Ab) VH: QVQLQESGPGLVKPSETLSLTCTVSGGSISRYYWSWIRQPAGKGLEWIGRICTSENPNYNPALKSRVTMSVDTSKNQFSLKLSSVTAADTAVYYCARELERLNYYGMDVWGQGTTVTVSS VL: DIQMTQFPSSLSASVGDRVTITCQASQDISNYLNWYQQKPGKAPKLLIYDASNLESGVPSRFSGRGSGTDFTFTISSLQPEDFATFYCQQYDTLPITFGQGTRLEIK yielded Response of 0.17
